Exercise: for every item that follows, state its recorded inhibition.
system-under-test: Adenosine receptor A2b (Homo sapiens) (UniProt P29275)
Sequence (P29275 whole entry): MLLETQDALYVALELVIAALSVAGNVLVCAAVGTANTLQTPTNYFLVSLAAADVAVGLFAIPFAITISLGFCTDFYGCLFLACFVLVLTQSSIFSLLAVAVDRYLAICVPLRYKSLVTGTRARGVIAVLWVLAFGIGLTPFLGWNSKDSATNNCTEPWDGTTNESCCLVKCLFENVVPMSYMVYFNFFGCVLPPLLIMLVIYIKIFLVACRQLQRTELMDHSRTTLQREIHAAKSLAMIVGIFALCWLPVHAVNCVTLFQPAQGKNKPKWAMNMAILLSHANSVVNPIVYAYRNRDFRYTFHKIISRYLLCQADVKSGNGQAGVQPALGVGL
method-summary: Inhibition of human A2B adenosine receptor transfected in CHO cells assessed as inhibition of NECA-induced cyclic AMP production at 1 uM after 10 mins by competitive protein binding assay
Format: cell-based
Numbers only; they are read as %.

// returns reported inhibition for input `COc1ccc(-n2cc3nc(C)nc(NC(=O)c4ccco4)c3n2)cc1`
1

Let us now turn to `COc1ccc(C(=O)Nc2nc(C)nc3cn(-c4ccccc4)nc23)cc1`
1

Let us now turn to `Cc1nc(NC(=O)Cc2ccccc2)c2nn(-c3ccccc3)cc2n1`
1

Let us now turn to `COc1ccc(-n2cc3nc(C)nc(NC(=O)c4ccccc4)c3n2)cc1`
1

Let us now turn to `COc1ccc(-n2cc3nc(-c4ccccc4)nc(NC(=O)c4ccccc4)c3n2)cc1`
2

Let us now turn to `Cc1nc(N(C(=O)c2ccccc2)C(=O)c2ccccc2)c2nn(-c3ccccc3)cc2n1`
5

Let us now turn to `O=C(Nc1nc(-c2ccccc2)nc2cn(-c3ccccc3)nc12)c1ccccc1`
2

Let us now turn to `COc1ccc(-n2cc3nc(-c4ccccc4)nc(NC(C)=O)c3n2)cc1`
1

Let us now turn to `COc1ccc(-n2cc3nc(C)nc(NC(C)=O)c3n2)cc1`
30

Let us now turn to `COc1ccc(-n2cc3nc(-c4ccccc4)nc(N)c3n2)cc1`
3

Let us now turn to `CC(=O)Nc1nc(-c2ccccc2)nc2cn(-c3ccccc3)nc12`
2

Let us now turn to `COc1ccc(-n2cc3nc(C)nc(NC(=O)Cc4ccccc4)c3n2)cc1`
11

Let us now turn to `O=C(Nc1nc(-c2ccccc2)nc2cn(-c3ccccc3)nc12)c1ccncc1`
1

Let us now turn to `Cc1nc(N(C(=O)c2ccco2)C(=O)c2ccco2)c2nn(-c3ccccc3)cc2n1`
1

Let us now turn to `COc1ccc(-n2cc3nc(-c4ccccc4)nc(NC(=O)Cc4ccccc4)c3n2)cc1`
2

Let us now turn to `Cc1nc(NC(=O)c2ccccc2)c2nn(-c3ccccc3)cc2n1`
2

Let us now turn to `Cc1nc(NC(=O)c2ccco2)c2nn(-c3ccccc3)cc2n1`
1

Let us now turn to `O=C(Nc1nc(-c2ccccc2)nc2cn(-c3ccccc3)nc12)c1cccnc1`
1

Let us now turn to `COc1ccc(-n2cc3nc(C)nc(N)c3n2)cc1`
2

Let us now turn to `COc1ccc(-n2cc3nc(C)nc(NC(=O)NCc4ccccc4)c3n2)cc1`
1

Let us now turn to `Cc1nc(NC(=O)c2cccnc2)c2nn(-c3ccccc3)cc2n1`
1

Let us now turn to `COc1ccc(-n2cc3nc(Cc4ccccc4)nc(N)c3n2)cc1`
33
